Below is a list of entries, each paired with its recorded MIC value.
System: Escherichia coli
Assay: In vitro antibacterial activity was tested for Escherichia coli H560
Format: functional
assay metric: MIC (µg/mL)

[
  {
    "compound": "NC1CCN(c2cc3c(cc2F)c(=O)c(C(=O)O)cn3C2CC2)C1 (stereo not given)",
    "assay metric": "MIC",
    "recorded measurement": 0.05
  },
  {
    "compound": "COc1c(N2CC[C@H](N)C2)c(F)cc2c(=O)c(C(=O)O)cn(C3CC3)c12",
    "assay metric": "MIC",
    "recorded measurement": 0.025
  },
  {
    "compound": "COc1c(N2CCC(C)(CN)C2)c(F)cc2c(=O)c(C(=O)O)cn(C3CC3)c12 (stereo not given)",
    "assay metric": "MIC",
    "recorded measurement": 0.05
  },
  {
    "compound": "CCOc1c(N2CCC(N)C2)c(F)cc2c(=O)c(C(=O)O)cn(C3CC3)c12 (stereo not given)",
    "assay metric": "MIC",
    "recorded measurement": 0.05
  },
  {
    "compound": "COc1c(N2CC[C@@H](N)C2)c(F)cc2c(=O)c(C(=O)O)cn(C3CC3)c12",
    "assay metric": "MIC",
    "recorded measurement": 0.025
  },
  {
    "compound": "COc1c(N2CCN(C)CC2)c(F)cc2c(=O)c(C(=O)O)cn(C3CC3)c12",
    "assay metric": "MIC",
    "recorded measurement": 0.1
  },
  {
    "compound": "COc1c(N2CCCC(N)C2)c(F)cc2c(=O)c(C(=O)O)cn(C3CC3)c12 (stereo not given)",
    "assay metric": "MIC",
    "recorded measurement": 0.05
  },
  {
    "compound": "CCOc1c(N2CCC(C)(CN)C2)c(F)c(N)c2c(=O)c(C(=O)O)cn(C3CC3)c12 (stereo not given)",
    "assay metric": "MIC",
    "recorded measurement": 0.1
  },
  {
    "compound": "Nc1c(F)c(N2CCC(N)C2)c(F)c2c1c(=O)c(C(=O)O)cn2C1CC1 (stereo not given)",
    "assay metric": "MIC",
    "recorded measurement": 0.003
  },
  {
    "compound": "COc1c(N2CC[C@H](N)C2)c(F)c(N)c2c(=O)c(C(=O)O)cn(C3CC3)c12",
    "assay metric": "MIC",
    "recorded measurement": 0.05
  }
]

----------
Entries and their measured PTD50 follow.
Species: Mus musculus
Assay: Phototoxic skin reaction in depilated female CD-1 mice
Assay type: toxicity, organism-based
Settings: in vivo

[
  {
    "compound": "COc1c(N2CCC(N)C2)c(F)c(N)c2c(=O)c(C(=O)O)cn(C3CC3)c12 (stereo not given)",
    "PTD50": "> 100 mg"
  },
  {
    "compound": "COc1c(N2CC(C)NC(C)C2)c(F)cc2c(=O)c(C(=O)O)cn(C3CC3)c12 (stereo not given)",
    "PTD50": "> 100 mg"
  },
  {
    "compound": "COc1c(N2CC(C)NC(C)C2)c(F)c(N)c2c(=O)c(C(=O)O)cn(C3CC3)c12 (stereo not given)",
    "PTD50": "> 100 mg"
  },
  {
    "compound": "O=C(O)c1cn(C2CC2)c2cc(N3CCNCC3)c(F)cc2c1=O",
    "PTD50": "172 mg"
  },
  {
    "compound": "C[C@@H]1CN(c2c(F)cc3c(=O)c(C(=O)O)cn(C4CC4)c3c2F)C[C@H](C)N1",
    "PTD50": "55 mg"
  },
  {
    "compound": "Nc1c(F)c(N2CCC(N)C2)c(F)c2c1c(=O)c(C(=O)O)cn2C1CC1 (stereo not given)",
    "PTD50": "52 mg"
  },
  {
    "compound": "CC1(CN)CCN(c2c(F)cc3c(=O)c(C(=O)O)cn(C4CC4)c3c2F)C1 (stereo not given)",
    "PTD50": "< 30 mg"
  },
  {
    "compound": "CC1(CN)CCN(c2c(F)cc3c(=O)c(C(=O)O)cn(C4CC4)c3c2Cl)C1 (stereo not given)",
    "PTD50": "< 30 mg"
  },
  {
    "compound": "NC1CCN(c2cc3c(cc2F)c(=O)c(C(=O)O)cn3C2CC2)C1 (stereo not given)",
    "PTD50": "> 300 mg"
  },
  {
    "compound": "CCOc1c(N2CCC(C)(CN)C2)c(F)cc2c(=O)c(C(=O)O)cn(C3CC3)c12 (stereo not given)",
    "PTD50": "> 100 mg"
  },
  {
    "compound": "NC1CCN(c2nc3c(cc2F)c(=O)c(C(=O)O)cn3C2CC2)C1 (stereo not given)",
    "PTD50": "> 100 mg"
  },
  {
    "compound": "COc1c(N2CCC(C)(CN)C2)c(F)cc2c(=O)c(C(=O)O)cn(C3CC3)c12 (stereo not given)",
    "PTD50": "> 100 mg"
  },
  {
    "compound": "CC1(CN)CCN(c2nc3c(cc2F)c(=O)c(C(=O)O)cn3C2CC2)C1 (stereo not given)",
    "PTD50": "> 300 mg"
  },
  {
    "compound": "CC1(CN)CCN(c2cc3c(cc2F)c(=O)c(C(=O)O)cn3C2CC2)C1 (stereo not given)",
    "PTD50": "> 100 mg"
  },
  {
    "compound": "NC1CCN(c2c(F)cc3c(=O)c(C(=O)O)cn(C4CC4)c3c2F)C1 (stereo not given)",
    "PTD50": "7.5 mg"
  }
]
